# SYSTEM: T1, ScWpl1^259–647 (Wapl domain of Saccharomyces cerevisiae Wpl1), wild type (S. cerevisiae, UniProt Q99359 259-647)
# T1 sequence (looked up): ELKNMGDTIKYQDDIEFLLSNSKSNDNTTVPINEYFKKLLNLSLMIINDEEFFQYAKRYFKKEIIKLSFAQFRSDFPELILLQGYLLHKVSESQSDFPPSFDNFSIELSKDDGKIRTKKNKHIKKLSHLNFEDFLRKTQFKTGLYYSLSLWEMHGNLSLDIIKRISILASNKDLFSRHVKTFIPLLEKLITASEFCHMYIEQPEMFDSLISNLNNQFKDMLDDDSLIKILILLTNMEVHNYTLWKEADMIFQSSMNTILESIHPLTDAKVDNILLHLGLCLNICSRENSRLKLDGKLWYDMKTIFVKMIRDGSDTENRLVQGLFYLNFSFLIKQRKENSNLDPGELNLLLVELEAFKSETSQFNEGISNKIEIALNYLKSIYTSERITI
# EXPERIMENTAL PROTOCOL: BLI
RESULT TYPE: kon (M⁻¹ s⁻¹)
I only need the number, in M⁻¹ s⁻¹, no unit after it.

QUERY: Entry under review: GST-tagged ScSmc3 ATPase head (ScSmc3^AH), wild type (domain or fragment, S. cerevisiae) MYIKRVIIKGFKTYRNETIIDNFSPHQNVIIGSNGSGKSNFFAAIRFVLSDDYSNLKREERQGLIHQGSGGSVMSASVEIVFHDPDHSMILPSGVLSRGDDEVTIRRTVGLKKDDYQLNDRNVTKGDIVRMLETAGFSMNNPYNIVPQGKIVALTNAKDKERLQLLEDVVGAKSFEVKLKASLKKMEETESGGSGGKVSENFEAVFERLVPRGTAKLIIHRKNDNANDHDESIDVDMDAESNESQNGKDSEIMYTGVSISVSFNSKQNEQLHVEQLSGGQKTVCAIALILAIQMVDPASFYLFDEIDAALDKQYRTAVATLLKELSKNAQFICTTFRTDMLQVADKFFRVKYENKISTVIEVNREEAIGFIRGSNKFAEV . Reported kon?
RESULT: 5220
